EXPERIMENTAL TARGET: T1, BACE1 (Homo sapiens, UniProt P56817)
T1 construct: human β-secretase 1 (BACE1, residue 46-457); made in house; host or cells: HEK293F (secreted, protein A purified)
T1 sequence (P56817 46-457): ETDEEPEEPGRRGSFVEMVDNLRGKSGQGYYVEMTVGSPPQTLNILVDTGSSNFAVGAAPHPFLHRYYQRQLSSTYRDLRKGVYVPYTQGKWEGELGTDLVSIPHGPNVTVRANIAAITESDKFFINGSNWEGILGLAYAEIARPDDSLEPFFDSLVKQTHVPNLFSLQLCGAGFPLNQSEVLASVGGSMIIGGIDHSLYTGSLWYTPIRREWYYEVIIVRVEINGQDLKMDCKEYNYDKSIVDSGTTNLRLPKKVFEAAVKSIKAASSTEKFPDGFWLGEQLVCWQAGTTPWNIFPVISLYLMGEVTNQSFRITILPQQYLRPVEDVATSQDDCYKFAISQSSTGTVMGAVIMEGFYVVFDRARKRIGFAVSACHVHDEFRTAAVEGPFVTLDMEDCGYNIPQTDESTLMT
EXPERIMENTAL DETAILS: Binding kinetics by biolayer interferometry, Fabs/IgGs on BACE1
CONDITION SUMMARY: Fab, read-out: Binding Affinity KD
Readings of Kd for the listed molecules

MOLECULE: Fab B1B3: anti-BACE-1 antibody clone; VL SEQ ID NO:104, VH SEQ ID NO:61, CDR-H3 SEQ ID NO:64 (antibody, V domains shown) VH: EVQLVESGGGLVQPGGSLRLSCAASGFNISYYSMHWVRQAPGKGLEWVASISPYYGSTYYADSVKGRFTISADTSKNTAYLQMNSLRAEDTAVYYCARERSSCPVGWRDSRFGADGYGLEYWGQGTLVTVSSAS VL: DIQMTQSPSSLSASVGDRVTITCRASQSVSSAVAWYQQKPGKAPKLLIYSASSLYSGVPSRFSGSRSGTDFTLTISSLQPEDFATYYCQQSGHYHSLITFGQGTKVEIKR
Kd (nM): 31

MOLECULE: Fab B2B5: anti-BACE-1 antibody clone; VL SEQ ID NO:100, VH SEQ ID NO:41, CDR-H3 SEQ ID NO:43 (antibody, V domains shown) VH: EVQLVESGGGLVQPGGSLRLSCAASGFNIYYSYMHWVRQAPGKGLEWVASIYPYYGSTYYADSVKGRFTISADTSKNTAYLQMNSLRAEDTAVYYCARWHGYPPGYSYYSSFSSSGFDYWGQGTLVTVSSAS VL: DIQMTQSPSSLSASVGDRVTITCRASQSVSSAVAWYQQKPGKAPKLLIYSASSLYSGVPSRFSGSRSGTDFTPTISSLQPEDFATYYCQQSYFSYPITFGQGTKVEIKR
Kd (nM): 130

MOLECULE: Fab B2B9: anti-BACE-1 antibody clone; VL SEQ ID NO:96, VH SEQ ID NO:53, CDR-H3 SEQ ID NO:56 (antibody, V domains shown) VH: EVQLVESGGGLVQPGGSLRLSCAASGFNISYSSMHWVRQAPGKGLEWVASIYPSYSYTSYADSVKGRFTISADTSKNTAYLQMNSLRAEDTAVYYCARSSSSYYYGMDYWGQGTLVTVSSAS VL: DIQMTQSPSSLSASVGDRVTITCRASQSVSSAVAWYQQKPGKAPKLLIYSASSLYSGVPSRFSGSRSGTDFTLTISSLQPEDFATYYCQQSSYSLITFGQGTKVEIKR
Kd (nM): 110

MOLECULE: Fab B2B3: anti-BACE-1 antibody clone; VL SEQ ID NO:102, VH SEQ ID NO:50, CDR-H3 SEQ ID NO:52 (antibody, V domains shown) VH: EVQLVESGGGLVQPGGSLRLSCAASGFNISYSSIHWVRQAPGKGLEWVAYISSYSSSTYYADSVKGRFTISADTSKNTAYLQMNSLRAEDTAVYYCARSASGIDYWGQGTLVTVSSAS VL: DIQMTQSPSSLSASVGDRVTITCRASQSVSSAVAWYQQKPGKAPKLLIYSASSLYSGVPSRFSGSRSGTDFTLTISSLQPEDFATYYCQQSGYAPFTFGQGTKVEIKR
Kd (nM): 100

Where these numbers come from: patent US11332546B2
